Reference source: patent US20230012273A1

- Assay target: T1, full-length human SIRPαV2 E→N on Expi-CHO cells (human, UniProt P78324 31-504)
- T1 construct: the entry already carries the change (TKRE to TKRN)
- T1 sequence (P78324 other isoform, or with tags, fused parts or gaps): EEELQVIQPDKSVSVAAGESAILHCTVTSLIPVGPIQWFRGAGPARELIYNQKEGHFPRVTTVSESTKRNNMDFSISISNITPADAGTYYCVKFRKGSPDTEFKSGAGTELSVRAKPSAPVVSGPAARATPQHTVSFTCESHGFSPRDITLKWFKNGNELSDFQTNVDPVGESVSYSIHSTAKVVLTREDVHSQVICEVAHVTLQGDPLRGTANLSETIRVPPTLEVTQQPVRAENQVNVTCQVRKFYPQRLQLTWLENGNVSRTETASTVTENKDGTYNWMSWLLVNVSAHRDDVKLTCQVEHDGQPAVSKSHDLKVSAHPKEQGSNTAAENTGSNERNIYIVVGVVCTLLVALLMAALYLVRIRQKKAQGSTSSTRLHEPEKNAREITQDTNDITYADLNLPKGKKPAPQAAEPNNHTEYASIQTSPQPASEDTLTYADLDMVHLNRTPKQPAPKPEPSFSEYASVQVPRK
- Test method notes: flow cytometry, Expi-CHO cells
- Method: Expi-CHO parental cells are transduced with lentiviruses containing either full-length wild-type human SIRPαV2 allele (CAA71403.1) or full-length human SIRPαV2 with amino acid point mutations (Table 58) and sorted to achieve matching expression levels. […] Stained cells are washed, fixed, and analyzed by flow cytometry. Median fluorescent intensity is determined and used as a measure of antibody binding.
Reported metric: EC50 (nM)
Record the value in nM, omitting the unit from your answer.

Item under review: Antibody C (antibody, human IgG1, kappa, L234A L235A, V domains shown) VH: EVQLVESGGGLVQPGGSLRLSCAASGFTFSSYDMHWVRQATGKGLEWVSVIGIAGDTYYPGSVKGRFTISRENAKNSLYLQMNSLRVGDTAVYYCARGGSWDDAFDIWGQGTMVTVSS VL: DIQMTQSPSSLSASIGDKVTITCRASQDINNYLAWFQQKPGKAPKSLIYTASSLQSGVPSKFSGSGSGTDFTLTISSLQPEDFATYYCQQYVSYPYTFGQGTKLEIKR . Reported EC50?
0.2
